These entries and their values trace back to patent US20230212549A1.

Test: in vivo
Conditions: swiss nude, mouse, tumor, iv

compound	tissue uptake at 3 h [%ID/g]
CCCC[C@H](NC(=O)CCC(=O)NCCCOCCOCCOCCCNC(=O)C(CNCCN)CNCCN)C(=O)N[C@H]1CSCc2cncc(c2)CSCC(C(=O)O)NC(=O)[C@H](Cc2ccccc2)NC(=O)[C@H](CCC(N)=O)NC(=O)[C@H]([C@@H](C)O)NC(=O)[C@@H]2CCCN2C(=O)[C@@H]2CCCN2C1=O (stereo partly drawn)	4.25
CCCC[C@H](NC(=O)CCOCCOCCOCCOCCOCCOCCNC(=O)C(CNCCN)CNCCN)C(=O)N[C@H]1CSCc2cccc(c2)CSCC(C(=O)O)NC(=O)[C@H](Cc2ccccc2)NC(=O)[C@H](CCC(N)=O)NC(=O)[C@H]([C@@H](C)O)NC(=O)[C@@H]2CCCN2C(=O)[C@@H]2CCCN2C1=O (stereo partly drawn)	7.31
CCCC[C@H](NC(=O)CCC(=O)NCCCOCCOCCOCCCNC(=O)CN1CCN(C(=O)C(CNCCN)CNCCN)CC1)C(=O)N[C@H]1CSCc2cncc(c2)CSC[C@@H](C(=O)NCCC(=O)O)NC(=O)[C@H](Cc2ccccc2)NC(=O)[C@H](CCC(N)=O)NC(=O)[C@H]([C@@H](C)O)NC(=O)[C@@H]2CCCN2C(=O)[C@@H]2CCCN2C1=O	11.4

---

Test: Radiochemical purity by HPLC of ^99mTc-labeled compounds
Type: physicochemical
Conditions: 99Tc-labeled compounds
Procedure: 100-500 MBq of ^99mTcO4 (in saline) were mixed with 11 μl of 0.5 M phosphate buffer pH 11.5-12.0 and 1.1 μl of 0.1 M trisodium citrate per 100 μl radionuclide solution. […] The mixture was incubated for 30 min at 25-50′° C. At the end of the incubation time, the mixture was neutralized with 3.0 μl 1 M HCl per 10 μl phosphate buffer and TWEEN-20 was added at a final concentration of 0.100.
Numbered stars: 1 amine (or outer) side, 2 acyl side, 3 side chain; on linkers, the order of the positions; unused ones are H or OH. Bridge positions count the residues as written; N and C are the ends. Square brackets hold non-standard residues; d marks the D form. Peptide text beside a SMILES is read from it. * marks the point of attachment. X1 = NCCNCC(CNCCN)C(=O)N1CCN(CC(=O)NCCCOCCOCCOCCCN*)CC1; mXylylene = c1cc(C[*:1])cc(C[*:2])c1; Suc = O=C(CCC(=O)[*:2])[*:1]; Nle = CCCC[C@H](N)C(=O)O
Listed here: items and their measured HPLC Area % appr. 4 h post end of synthesis.
observedProperty: HPLC Area % appr. 4 h post end of synthesis (%)

molecule	valueUnits	val
CCCC[C@H](NC(=O)CCC(=O)NCCCOCCOCCOCCCNC(=O)CN1CCN(C(=O)C(CNCCN)CNCCN)CC1)C(=O)N[C@H]1CSCc2cccc(c2)CSC[C@@H](C(=O)NCCC(=O)O)NC(=O)[C@H](Cc2ccccc2)NC(=O)[C@H](CCC(N)=O)NC(=O)[C@H]([C@@H](C)O)NC(=O)[C@@H]2CCCN2C(=O)[C@@H]2CCCN2C1=O	%	92.3
CCCC[C@H](NC(=O)CCC(=O)NCCCOCCOCCOCCCNC(=O)CN1CCN(C(=O)C(CNCCN)CNCCN)CC1)C(=O)N[C@H]1CSCc2cccc(c2)CSC[C@@H](C(=O)N[C@@H](CC(=O)O)C(=O)O)NC(=O)[C@H](Cc2ccccc2)NC(=O)[C@H](CCC(=O)O)NC(=O)[C@H]([C@@H](C)O)NC(=O)[C@@H]2CCCN2C(=O)[C@@H]2CCCN2C1=O [3BP-4785] ({X1-Suc}-[Nle]CPPTEFCD-OH; linker 2-8 via mXylylene)	%	93.8

---

Assay: Pharmacokinetic study in rats (plasma, NCA)
Conditions: rat, intravenous, 400 nmol/kg

compound	valueUnits	clearance
CCCCCC(=O)N[C@H]1CSCc2cc(CSCCNC(=O)CN3CCN(CC(=O)O)CCN(CC(=O)O)CCN(CC(=O)O)CC3)cc(c2)CSC[C@@H](C(=O)O)NC(=O)[C@H](Cc2ccccc2)NC(=O)[C@H](CCC(N)=O)NC(=O)[C@H]([C@@H](C)O)NC(=O)[C@@H]2CCCN2C(=O)[C@@H]2CCCN2C1=O [3BP-3623]	mL/min/kg	9.03

---

Listed here: items and their measured IC50.
Molecular target: FAP-expressing human WI-38 fibroblasts (Homo sapiens, UniProt Q12884)
Sequence (Q12884 whole entry): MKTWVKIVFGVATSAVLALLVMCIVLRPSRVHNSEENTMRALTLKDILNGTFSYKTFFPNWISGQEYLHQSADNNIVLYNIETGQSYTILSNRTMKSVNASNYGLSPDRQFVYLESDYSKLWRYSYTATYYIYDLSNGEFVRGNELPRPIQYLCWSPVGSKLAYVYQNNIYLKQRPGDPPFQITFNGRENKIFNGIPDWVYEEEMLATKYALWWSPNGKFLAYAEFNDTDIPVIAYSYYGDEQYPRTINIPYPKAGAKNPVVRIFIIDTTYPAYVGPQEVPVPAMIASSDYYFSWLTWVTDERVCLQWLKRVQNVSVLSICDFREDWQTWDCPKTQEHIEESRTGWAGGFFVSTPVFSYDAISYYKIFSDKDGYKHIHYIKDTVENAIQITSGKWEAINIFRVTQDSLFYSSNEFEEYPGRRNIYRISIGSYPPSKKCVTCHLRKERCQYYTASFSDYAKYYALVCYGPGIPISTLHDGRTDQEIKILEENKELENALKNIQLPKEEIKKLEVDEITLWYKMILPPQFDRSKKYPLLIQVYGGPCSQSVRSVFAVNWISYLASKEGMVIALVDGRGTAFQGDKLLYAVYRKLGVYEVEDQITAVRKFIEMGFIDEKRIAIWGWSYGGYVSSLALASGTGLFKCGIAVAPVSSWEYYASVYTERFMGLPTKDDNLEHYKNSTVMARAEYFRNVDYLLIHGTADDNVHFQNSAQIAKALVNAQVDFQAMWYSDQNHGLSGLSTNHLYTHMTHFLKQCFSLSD
Numbered stars: 1 amine (or outer) side, 2 acyl side, 3 side chain; on linkers, the order of the positions; unused ones are H or OH. Bridge positions count the residues as written; N and C are the ends. Square brackets hold non-standard residues; d marks the D form. Peptide text beside a SMILES is read from it. * marks the point of attachment. NH(1-deoxy-D-glucityl) = OC[C@@H](O)[C@@H](O)[C@H](O)[C@@H](O)CN*; X3 = NCCNCC(CNCCN)C(=O)NCCCOCCOCCOCCCN*; mXylylene = c1cc(C[*:1])cc(C[*:2])c1; Suc = O=C(CCC(=O)[*:2])[*:1]; Nle = CCCC[C@H](N)C(=O)O
observedProperty: IC50

compound	targetOrTestSystem	val
CCCC[C@H](NC(=O)[C@H](CCC(=O)NC[C@H](O)[C@@H](O)[C@H](O)[C@H](O)CO)NC(=O)CCC(=O)NCCCOCCOCCOCCCNC(=O)C(CNCCN)CNCCN)C(=O)N[C@H]1CSCc2cccc(c2)CSC[C@@H](C(=O)O)NC(=O)[C@H](Cc2ccccc2)NC(=O)[C@H](CCC(=O)O)NC(=O)[C@H]([C@@H](C)O)NC(=O)[C@@H]2CCCN2C(=O)[C@@H]2CCCN2C1=O [3BP-4231] ({X3-Suc}-E(NH(1-deoxy-D-glucityl))[Nle]CPPTEFC-OH; linker 3-9 via mXylylene)	FAP-expressing human WI-38 fibroblasts (Homo sapiens, UniProt Q12884)	> 1000 nM
CCCC[C@H](NC(=O)CCC(=O)NCCCOCCOCCOCCCNC(=O)CCOCCOCCOCCOCCOCCOCCNC(=O)C(CNCCN)CNCCN)C(=O)N[C@H]1CSCc2cccc(c2)CSCC(C(=O)O)NC(=O)[C@H](Cc2ccccc2)NC(=O)[C@H](CCC(N)=O)NC(=O)[C@H]([C@@H](C)O)NC(=O)[C@@H]2CCCN2C(=O)[C@@H]2CCCN2C1=O (stereo partly drawn) [3BP-4552]	FAP-expressing human WI-38 fibroblasts (Homo sapiens, UniProt Q12884)	10 to 79.4 nM
CCCOCC(=O)N[C@H]1CSCc2cc(CSCCNC(=O)CN3CCN(CC(=O)O)CCN(CC(=O)O)CCN(CC(=O)O)CC3)cc(c2)CSC[C@@H](C(=O)O)NC(=O)[C@H](Cc2ccccc2)NC(=O)[C@H](CCC(N)=O)NC(=O)[C@H]([C@@H](C)O)NC(=O)[C@@H]2CCCN2C(=O)[C@@H]2CCCN2C1=O [3BP-3938]	FAP-expressing human WI-38 fibroblasts (Homo sapiens, UniProt Q12884)	< 10 nM

---

Experiment: in vivo
Conditions: swiss nude, mouse, kidneys, iv
Numbered stars: 1 amine (or outer) side, 2 acyl side, 3 side chain; on linkers, the order of the positions; unused ones are H or OH. Bridge positions count the residues as written; N and C are the ends. Square brackets hold non-standard residues; d marks the D form. Peptide text beside a SMILES is read from it. * marks the point of attachment. X1 = NCCNCC(CNCCN)C(=O)N1CCN(CC(=O)NCCCOCCOCCOCCCN*)CC1; mXylylene = c1cc(C[*:1])cc(C[*:2])c1; Suc = O=C(CCC(=O)[*:2])[*:1]; Nle = CCCC[C@H](N)C(=O)O; βAla = NCCC(=O)O
observedProperty: tissue uptake at 3 h

molecule	val
CCCC[C@H](NC(=O)CCC(=O)NCCCOCCOCCOCCCNC(=O)CN1CCN(C(=O)C(CNCCN)CNCCN)CC1)C(=O)N[C@H]1CSCc2cccc(c2)CSC[C@@H](C(=O)O)NC(=O)[C@H](Cc2ccccc2)NC(=O)[C@H](CCC(=O)O)NC(=O)[C@H]([C@@H](C)O)NC(=O)[C@@H]2CCCN2C(=O)[C@@H]2CCCN2C1=O [3BP-4782] ({X1-Suc}-[Nle]CPPTEFC-OH; linker 2-8 via mXylylene)	5.78 %ID/g
CCCC[C@H](NC(=O)CCC(=O)NCCCOCCOCCOCCCNC(=O)C(CNCCN)CNCCN)C(=O)N[C@H]1CSCc2cncc(c2)CSCC(C(=O)O)NC(=O)[C@H](Cc2ccccc2)NC(=O)[C@H](CCC(N)=O)NC(=O)[C@H]([C@@H](C)O)NC(=O)[C@@H]2CCCN2C(=O)[C@@H]2CCCN2C1=O (stereo partly drawn) [3BP-4549]	1.82 %ID/g
CCCC[C@H](NC(=O)CCC(=O)NCCCOCCOCCOCCCNC(=O)CN1CCN(C(=O)C(CNCCN)CNCCN)CC1)C(=O)N[C@H]1CSCc2cccc(c2)CSC[C@@H](C(=O)NCCC(=O)O)NC(=O)[C@H](Cc2ccccc2)NC(=O)[C@H](CCC(=O)O)NC(=O)[C@H]([C@@H](C)O)NC(=O)[C@@H]2CCCN2C(=O)[C@@H]2CCCN2C1=O [3BP-4784] ({X1-Suc}-[Nle]CPPTEFC[βAla]-OH; linker 2-8 via mXylylene)	1.23 %ID/g
CCCC[C@H](NC(=O)CCC(=O)NCCCOCCOCCOCCCNC(=O)CN1CCN(C(=O)C(CNCCN)CNCCN)CC1)C(=O)N[C@H]1CSCc2cncc(c2)CSCC(C(=O)O)NC(=O)[C@H](Cc2ccccc2)NC(=O)[C@H](CCC(N)=O)NC(=O)[C@H]([C@@H](C)O)NC(=O)[C@@H]2CCCN2C(=O)[C@@H]2CCCN2C1=O (stereo partly drawn) [3BP-4774]	0.85 %ID/g
CCCC[C@H](NC(=O)CCOCCOCCOCCOCCOCCOCCNC(=O)C(CNCCN)CNCCN)C(=O)N[C@H]1CSCc2cccc(c2)CSCC(C(=O)O)NC(=O)[C@H](Cc2ccccc2)NC(=O)[C@H](CCC(N)=O)NC(=O)[C@H]([C@@H](C)O)NC(=O)[C@@H]2CCCN2C(=O)[C@@H]2CCCN2C1=O (stereo partly drawn) [3BP-4551]	1.18 %ID/g
CCCC[C@H](NC(=O)CCC(=O)NCCCOCCOCCOCCCNC(=O)CCOCCOCCOCCOCCOCCOCCNC(=O)C(CNCCN)CNCCN)C(=O)N[C@H]1CSCc2cccc(c2)CSCC(C(=O)O)NC(=O)[C@H](Cc2ccccc2)NC(=O)[C@H](CCC(N)=O)NC(=O)[C@H]([C@@H](C)O)NC(=O)[C@@H]2CCCN2C(=O)[C@@H]2CCCN2C1=O (stereo partly drawn) [3BP-4552]	3.4 %ID/g
